- Tested on: CCRIS mutagenicity, Ames/micronucleus/aberration tests
- Procedure Summary: CCRIS mutagenicity studies
- Test Parameters: Test System: AMES SALMONELLA TYPHIMURIUM; Strain/Indicator: TA1538; Metabolic Activation: RAT, LIVER, S-9, KC 500; Method: PREINCUBATION
Calls of active or inactive are those of the source. How the calls were made is not given here.
Readout Name: mutagenic call

COC(=O)CC(C)=O : inactive; negative
O=C(O)CCCCCCCCC(=O)O : inactive; negative
CCCCCCCCCCCCc1ccccc1 : inactive; negative
O=S(O)S(=O)O : inactive; negative

###

- System: CCRIS mutagenicity, Ames/micronucleus/aberration tests
- Procedure Summary: CCRIS mutagenicity studies
- Test Parameters: Test System: AMES SALMONELLA TYPHIMURIUM; Strain/Indicator: TA97; Metabolic Activation: NONE; Method: PREINCUBATION
- Excerpt: The CCRIS database contains chemical records with carcinogenicity, mutagenicity, tumor promotion, and tumor inhibition test results. It was developed by the National Cancer Institute (NCI). Data are derived from studies cited in primary journals, current awareness tools, NCI reports, and other sources. Test results have been reviewed by experts in carcinogenesis and mutagenesis. CCRIS provides historical information from the years 1985 - 2011. It is no longer updated. […]
The source made the active and inactive calls. No rule for the calls is given here.
Response enum: yes for active, no for inactive

Problem: Recorded test call requested for COc1ccc(/C=N/n2nnc3c([nH]c4ccccc43)c2=O)cc1
Solution: yes

Problem: How did this test come out for CCNc1nc(Cl)nc(NC(C)C)n1 ?
Solution: no

Problem: How was C=CC(=O)NCNC(=O)C=C classified in this test?
Solution: no

Problem: Please state the recorded outcome for this compound: CCCCCc1cc(O)c2c(c1)OC(C)(C)[C@@H]1CCC(C)=C[C@@H]21
Solution: no

Problem: Please let me know the test result on file for CC(=O)Nc1cccc(O)c1 .
Solution: no

Problem: Please indicate how the test categorized O=C1NC(=O)C(O)(O)C(=O)N1 .
Solution: no

Problem: I'd appreciate the recorded outcome for CCCCCCC=O from this test.
Solution: no

Problem: Per the assay record, what outcome was assigned to COC(=O)Nc1cccc(OC(=O)Nc2cccc(C)c2)c1 ?
Solution: no

Problem: Please share the test call associated with O=[N+]([O-])c1ccc(CCO)cc1 .
Solution: no

Problem: Returns: the outcome recorded for NCCS(=O)(=O)O in this assay.
Solution: no

Problem: Test call for this compound, please: O[C@H]1[C@H]2O[C@H]2c2c(c3ccccc3c3ccccc23)[C@@H]1O
Solution: yes

Problem: Returns: the outcome recorded for O=C1CN(CCN2CC(=O)N(CN3CCOCC3)C(=O)C2)CC(=O)N1CN1CCOCC1 in this assay.
Solution: no

Problem: Field: outcome | Entry: CC(=O)NBr
Solution: no

Problem: Lab log entry: O=C(O)c1cccc(Cl)c1 — outcome as called in the assay?
Solution: no

Problem: GET /call?item= Nc1c2c(nc3ccccc13)CCCC2 returns the recorded outcome of this test.
Solution: yes

Problem: Hi, sorry to bother you, what did the test record for CCNc1cccc(O)c1 ?
Solution: no

Problem: Hey, what did the test say about N#C/C(N)=C(/N)C#N ?
Solution: no

Problem: Would you mind telling me which call this test gave CCC(C(N)=O)(C(N)=O)c1ccccc1 ?
Solution: no

Problem: Would you mind telling me which call this test gave O=C1c2c(O)cccc2Cc2cccc(O)c21 ?
Solution: no

Problem: Name the outcome recorded for CNC(=O)ON=CC(C)(C)SC in the assay.
Solution: no

Problem: Please state the recorded outcome for this compound: Cc1c[nH]c(=S)[nH]c1=O
Solution: no

Problem: What outcome does the record of this test show for Nc1nc2ccccc2[nH]1 ?
Solution: no

Problem: Record request — test call for CCCCCCCC(=O)O
Solution: no

Problem: What call does the record list for C1CCC2CCCCC2C1 (centres undefined) ?
Solution: no

Problem: What outcome does the record of this test show for NC1=CC(=O)C(=O)c2ccccc21 ?
Solution: yes

Problem: Hi team, can someone confirm the assay call for CC(C)=CCC1=C(O)c2ccccc2C(=O)C1=O ?
Solution: no

Problem: Hello, I am checking results. What call was entered for O=S(O)S(=O)(=O)O ?
Solution: no

Problem: Short answer needed: outcome of this test for Nc1cc(C(=O)O)c(O)c(S(=O)(=O)O)c1 ?
Solution: no

Problem: // outcome(item) with item = CCC(C)(C)C
Solution: no

Problem: Outcome logged for CCCCCCCCCCCCOCC1CO1 (centres undefined) in this assay:
Solution: no

Problem: Tell me the assay call for C/C(=C(\CCOC(=O)c1ccccc1)SC(=O)c1ccccc1)N(C=O)Cc1cnc(C)nc1N please.
Solution: no

Problem: Answer briefly: the call reported for CC(O)COC(C)(C)C (centres undefined) in this assay.
Solution: yes

Problem: What was the test verdict on Nn1nnc2c([nH]c3ccccc32)c1=O ?
Solution: yes

Problem: Per the assay record, what outcome was assigned to CCOC(N)=O ?
Solution: no

Problem: // param item: CCCCCC(=O)O ; yields the recorded call
Solution: no

Problem: Any idea what this test logged for O=C(O)c1ccccc1Cl ?
Solution: no

Problem: Status in this test for CC(COc1ccccc1)N(CCCl)Cc1ccccc1 (centres undefined) ?
Solution: yes

Problem: Dear all, I need the recorded test outcome for CCCCCC[C@H](C/C=C\CCCCCCCC(=O)OC)OC(C)=O , thank you.
Solution: no

Problem: Would you mind telling me which call this test gave OCCCBr ?
Solution: no

Problem: Just curious, what result did CCOc1cc(C=O)ccc1O get here?
Solution: no

Problem: How was OC[C@@H](O)[C@@H](O)[C@H](O)[C@H](O)CO classified in this test?
Solution: no

Problem: Dear colleague, could you share the recorded outcome for CCCCCCCCn1sccc1=O when you have a moment?
Solution: no

Problem: # outcome recorded in this test, key = CC(=O)OO
Solution: no

Problem: Given C=C1C[C@@]23CC[C@H]4[C@@](C)(CCC[C@@]4(C)C(=O)O[C@@H]4O[C@H](CO)[C@@H](O)[C@H](O)[C@H]4O)[C@@H]2CC[C@]1(O[C@@H]1O[C@H](CO)[C@@H](O)[C@H](O)[C@H]1O[C@@H]1O[C@H](CO)[C@@H](O)[C@H](O)[C@H]1O)C3 , state the outcome it received in this test.
Solution: no

Problem: Test call for this compound, please: CC(=O)OCCC(C)C
Solution: no

Problem: Entry Clc1cccc(-c2ccc(Cl)c(Cl)c2Cl)c1Cl : call = ?
Solution: no

Problem: Please share the test call associated with CC(C)=O .
Solution: no

Problem: Each compound tested received a call. Report the one for O=S(O)S(=O)O .
Solution: no

Problem: Hey, what did the test say about N#CCC#N ?
Solution: no

Problem: Field: outcome | Entry: CCNC(=O)CC[C@H](N)C(=O)O
Solution: no

Problem: Just curious, what result did CCCCCCCCC get here?
Solution: no

Problem: Which outcome did this test record for the compound CCC(CO)[N+](=O)[O-] (centres undefined) ?
Solution: no

Problem: // return assay outcome for CCCCCCc1ccc(-c2ccc(C#N)cc2)cc1
Solution: no

Problem: Would you mind telling me which call this test gave Cc1ccc(C(=O)c2cc(O)c(O)c([N+](=O)[O-])c2)cc1 ?
Solution: no

Problem: Kindly provide the recorded test outcome for the following compound: COc1ccc(C(Cl)=C(c2ccc(OC)cc2)c2ccc(OC)cc2)cc1
Solution: no

Problem: Per the assay record, what outcome was assigned to CCN(CC)C(=O)c1cccc(C)c1 ?
Solution: no

Problem: // outcome(item) with item = COc1cc(O)c2c(=O)c3c(O)ccc(O)c3oc2c1
Solution: yes

Problem: Assay outcome for Nc1ccc(Cc2ccc(N)cc2)cc1 : what was it?
Solution: no

Problem: // param item: O=C(O)CN(CCN(CC(=O)O)CC(=O)O)CC(=O)O ; yields the recorded call
Solution: no

meta.source: PubChem BioAssay AID1259407
